Tested on: female Syrian golden hamsters
Assay: anti-fertility activity in pregnant female Syrian golden hamsters
Type: in vivo
Details: Mesocricetus auratus, sc; Table I, 5,6-dihydro compounds, hamsters; read-out: ED50 (dose showing 100% effectiveness in 50% of the treated animals)
This section presents compounds with their documented ED50 values.
TEST READOUT: ED50 (mg/kg)

compound=C=CCOc1cccc(-c2nc3n(n2)CCc2ccccc2-3)c1 test_readout=ED50 unit_abbreviation=mg/kg censoring_qualifier== number=0.18
compound="Cc1ccccc1-c1nc2n(n1)CCc1ccccc1-2 [Example 2, reference compound]" test_readout=ED50 unit_abbreviation=mg/kg censoring_qualifier=> number=10
compound=CC(C)Oc1cccc(-c2nc3n(n2)CCc2ccccc2-3)c1 test_readout=ED50 unit_abbreviation=mg/kg censoring_qualifier== number=0.25
